Values from patent US20200170291A1

Particle Size Span by entry:
Assay: MALVERN MASTERSIZER 2000 particle size (d10, d50, d90)
Type: physicochemical
Experimental: All particle size (PS) analyses were conducted using a ROTAP Particle Size Analyzer and a MALVERN MASTERSIZER 2000, except as otherwise indicated. All particle size data were measured in microns and analyzed via the MALVERN MASTERSIZER 2000.

Guide cases for Particle Size Span, answers given:
Ask: Any idea what Particle Size Span was measured for OC[C@@H](O)[C@@H](O[C@@H]1O[C@H](CO)[C@H](O)[C@H](O)[C@H]1O)[C@H](O)[C@@H](O)CO [Sample 2b] ?
Reply: 7.0

Ask: Reported Particle Size Span for OC[C@@H](O)[C@@H](O[C@@H]1O[C@H](CO)[C@H](O)[C@H](O)[C@H]1O)[C@H](O)[C@@H](O)CO [Sample 3b] : what is it?
Reply: 5.7

Ask: Suppose we examine the compound OC[C@@H](O)[C@@H](O[C@@H]1O[C@H](CO)[C@H](O)[C@H](O)[C@H]1O)[C@H](O)[C@@H](O)CO [Proof of Concept] ; what Particle Size Span value has been reported?
Reply: 5.2

Ask: Consider the compound shown here: "OC[C@@H](O)[C@@H](O[C@H]1O[C@H](CO)[C@H](O)[C@H](O)[C@H]1O)[C@H](O)[C@@H](O)CO" What is its recorded Particle Size Span?
Reply: 1.9

Others:
Ask: Which Particle Size Span is listed for OC[C@@H](O)[C@@H](O[C@@H]1O[C@H](CO)[C@H](O)[C@H](O)[C@H]1O)[C@H](O)[C@@H](O)CO [Sample 1b] ?
Reply: 7.3

---

The following compounds are shown together with reported PS d10 values.
assay: MALVERN MASTERSIZER 2000 particle size (d10, d50, d90); format: physicochemical
Just the number please, in μ, no unit attached.

Please review the following examples before continuing.
Ask: Give the measured PS d10 of OC[C@@H](O)[C@@H](O[C@@H]1O[C@H](CO)[C@H](O)[C@H](O)[C@H]1O)[C@H](O)[C@@H](O)CO [Sample 1b] .
Reply: 5.6

Ask: Quick one: PS d10 of OC[C@@H](O)[C@@H](O[C@@H]1O[C@H](CO)[C@H](O)[C@H](O)[C@H]1O)[C@H](O)[C@@H](O)CO [Jet Milled B] ?
Reply: 5.3

Ask: Which PS d10 is listed for OC[C@@H](O)[C@@H](O[C@@H]1O[C@H](CO)[C@H](O)[C@H](O)[C@H]1O)[C@H](O)[C@@H](O)CO [Proof of Concept] ?
Reply: 5.3

Ask: // PS d10 lookup, key: "OC[C@@H](O)[C@@H](O[C@H]1O[C@H](CO)[C@H](O)[C@H](O)[C@H]1O)[C@H](O)[C@@H](O)CO"
Reply: 112.4

Ask: Report PS d10 for "O.OC[C@@H](O)[C@@H](O[C@@H]1O[C@H](CO)[C@H](O)[C@H](O)[C@H]1O)[C@H](O)[C@@H](O)CO" please.
Reply: 94.2

---
Ask: Bench note: what PS d10 did OC[C@@H](O)[C@@H](O[C@@H]1O[C@H](CO)[C@H](O)[C@H](O)[C@H]1O)[C@H](O)[C@@H](O)CO [Sample 2b] show?
Reply: 5.5

Ask: Request the reported PS d10 associated with OC[C@@H](O)[C@@H](O[C@@H]1O[C@H](CO)[C@H](O)[C@H](O)[C@H]1O)[C@H](O)[C@@H](O)CO [Sample 3b]
Reply: 7.6
